System: P. aeruginosa PAO1
Assay: microbe, parasite or virus in culture
Details: S3 Table; PAO1; antibiotic + 4 μM D-11
Reported FICI values for the following molecules.
Format: numeric value only, no unit, no commentary.

MOLECULE	FICI
N=C(N)c1ccc(OCCCCCOc2ccc(C(=N)N)cc2)cc1	1.125

Value of FICI reported for the molecule Cc1onc(-c2ccccc2)c1C(=O)N[C@@H]1C(=O)N2[C@@H]1SC(C)(C)[C@@H]2C(=O)O is 1.125

Value of FICI reported for the molecule CO[C@H]1/C=C/O[C@@]2(C)Oc3c(C)c(O)c4c(O)c(c5c(nc6cc(C)ccn65)c4c3C2=O)NC(=O)/C(C)=C\C=C\[C@H](C)[C@H](O)[C@@H](C)[C@@H](O)[C@@H](C)[C@H](OC(C)=O)[C@@H]1C is 0.127

Value of FICI reported for the molecule CC1=C(C(=O)O)N2C(=O)[C@@H](NC(=O)[C@H](N)c3ccccc3)[C@H]2SC1 is 1.125

Value of FICI reported for the molecule NCC[C@H](O)C(=O)N[C@@H]1C[C@H](N)[C@@H](O[C@H]2O[C@H](CN)[C@@H](O)[C@H](O)[C@H]2O)[C@H](O)[C@H]1O[C@H]1O[C@H](CO)[C@@H](O)[C@H](N)[C@H]1O is 2.125

Value of FICI reported for the molecule C[C@@H](O)[C@H]1C(=O)N2C(C(=O)O)=C(S[C@@H]3CN[C@H](C(=O)N(C)C)C3)[C@H](C)[C@H]12 is 0.375

Value of FICI reported for the molecule CCn1cc(C(=O)O)c(=O)c2ccc(C)nc21 is 0.141

Value of FICI reported for the molecule CO/N=C(\C(=O)N[C@@H]1C(=O)N2C(C(=O)[O-])=C(C[N+]3(C)CCCC3)CS[C@H]12)c1csc(N)n1 [Cefepime] is 0.625

Value of FICI reported for the molecule CNC(C)C1CCC(N)C(OC2C(N)CC(N)C(OC3OCC(C)(O)C(NC)C3O)C2O)O1 (stereo not drawn) is 2.125

Value of FICI reported for the molecule C[C@@H]1O[C@@H]1P(=O)(O)O is 0.188

Value of FICI reported for the molecule CCO/N=C(\C(=O)N[C@@H]1C(=O)N2C(C(=O)[O-])=C(Sc3nc(-c4cc[n+](C)cc4)cs3)CS[C@H]12)c1nsc(N)n1 is 1.125

Value of FICI reported for the molecule CC1COc2c(N3CCN(C)CC3)c(F)cc3c(=O)c(C(=O)O)cn1c23 (stereo not drawn) is 0.156
